- System: Human immunodeficiency virus 1
- Method Notes: microbe, parasite or virus in culture
- Test Settings: Human immunodeficiency virus 1, MT2
- Description: Antiviral activity against wild type HIV1 infected in human MT2 cells after 4 to 5 days in presence of 10% FBS and 40% human serum albumin by dual luciferase reporter gene assay
Endpoint: EC50 (nM)
Quick note: give the figure in nM, leave out the unit.

// solved cases for EC50 follow
C=C(C)[C@@H]1CC[C@]2(NCCN3C[C@@H]4C[C@H]3CS4(=O)=O)CC[C@]3(C)[C@H](CC[C@@H]4[C@@]5(C)CC=C(c6ccc(C(=O)O)cc6)C(C)(C)[C@@H]5CC[C@]43C)[C@@H]12	11.1
C=C(C)[C@@H]1CC[C@]2(NCCN3CC4(C3)CN(S(C)(=O)=O)C4)CC[C@]3(C)[C@H](CC[C@@H]4[C@@]5(C)CC=C(c6ccc(C(=O)O)cc6)C(C)(C)[C@@H]5CC[C@]43C)[C@@H]12	7.4
C=C(C)[C@@H]1CC[C@]2(NCCN3CCCS(=O)(=O)CC3)CC[C@]3(C)[C@H](CC[C@@H]4[C@@]5(C)CC=C(c6ccc(C(=O)O)cc6)C(C)(C)[C@@H]5CC[C@]43C)[C@@H]12	35.1

Next:
Endpoint output: EC50 of C=C(C)[C@@H]1CC[C@]2(NCCN3CC4C(C3)C4NS(C)(=O)=O)CC[C@]3(C)[C@H](CC[C@@H]4[C@@]5(C)CC=C(c6ccc(C(=O)O)cc6)C(C)(C)[C@@H]5CC[C@]43C)[C@@H]12 (some centres undefined) . Value?
21.3
